Biological target: UniProt P14618
Sequence (P14618 2-531 limits assumed): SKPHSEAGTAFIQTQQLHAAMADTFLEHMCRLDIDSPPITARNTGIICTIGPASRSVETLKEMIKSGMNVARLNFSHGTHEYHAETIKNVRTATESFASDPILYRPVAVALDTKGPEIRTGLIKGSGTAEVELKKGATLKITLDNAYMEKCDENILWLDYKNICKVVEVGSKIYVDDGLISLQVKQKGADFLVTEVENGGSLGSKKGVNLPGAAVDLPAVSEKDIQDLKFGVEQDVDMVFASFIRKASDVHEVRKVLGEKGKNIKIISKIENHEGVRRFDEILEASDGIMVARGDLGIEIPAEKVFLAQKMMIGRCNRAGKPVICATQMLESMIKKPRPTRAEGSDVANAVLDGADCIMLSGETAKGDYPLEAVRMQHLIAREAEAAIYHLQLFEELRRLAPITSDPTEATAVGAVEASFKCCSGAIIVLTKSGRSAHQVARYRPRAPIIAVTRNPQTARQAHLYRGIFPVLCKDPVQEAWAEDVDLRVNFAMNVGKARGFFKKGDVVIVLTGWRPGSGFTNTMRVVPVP
Assay: Inhibition human pyruvate kinase M1 at 10 uM
readoutName: inhibition (%)
# output: bare number, implied unit %

Worked cases, answers included:
O=[N+]([O-])c1cc(-c2cc3ccccc3[nH]2)ccc1-c1cc2ccc(Br)cc2[nH]1 :: 9.5
Brc1ccc2cc(CCc3cc4ccc(Br)cc4[nH]3)[nH]c2c1 :: 9.9
Brc1ccc2cc(-c3cc4cc(Br)c(Br)cc4[nH]3)[nH]c2c1 :: 8.6
CN1CCN(CCn2c(-c3cc4ccc(Br)cc4[nH]3)cc3cc(Br)ccc32)CC1 :: 3.2

Field: next compound
[in] What does the record list as inhibition for "Brc1cc2cc(-c3cc4cc(Br)c(Br)cc4[nH]3)[nH]c2cc1Br" ?
[out] 11.1
